Could you please report measured interaction score for the items listed next?
- tgt: T1, 4H3449-AA
- T1 chain: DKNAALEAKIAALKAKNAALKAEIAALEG
- protocol-text: two-hybrid library CCmax;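 note: natural log of median RNA to DNA barcode read ratio; higher means stronger binding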
- test-settings: mean of both orientations
Provide a numeric answer; units are not to be included.

// interaction score lookup, binder = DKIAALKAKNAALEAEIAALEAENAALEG [4H2947-AA] , result: -0.39

// interaction score lookup, binder = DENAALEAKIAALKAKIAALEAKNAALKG [4H1384-AA] , result: -1.82

// interaction score lookup, binder = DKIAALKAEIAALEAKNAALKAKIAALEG [4H2621-AA] , result: -0.832

// interaction score lookup, binder = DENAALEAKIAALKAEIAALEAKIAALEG [4H1349-AA] , result: -0.531
